meta.source: ChEMBL document CHEMBL4418299

Biological target: Vascular endothelial growth factor receptor 2 (Homo sapiens)
Sequence (P35968 whole entry, the tested form may be a part): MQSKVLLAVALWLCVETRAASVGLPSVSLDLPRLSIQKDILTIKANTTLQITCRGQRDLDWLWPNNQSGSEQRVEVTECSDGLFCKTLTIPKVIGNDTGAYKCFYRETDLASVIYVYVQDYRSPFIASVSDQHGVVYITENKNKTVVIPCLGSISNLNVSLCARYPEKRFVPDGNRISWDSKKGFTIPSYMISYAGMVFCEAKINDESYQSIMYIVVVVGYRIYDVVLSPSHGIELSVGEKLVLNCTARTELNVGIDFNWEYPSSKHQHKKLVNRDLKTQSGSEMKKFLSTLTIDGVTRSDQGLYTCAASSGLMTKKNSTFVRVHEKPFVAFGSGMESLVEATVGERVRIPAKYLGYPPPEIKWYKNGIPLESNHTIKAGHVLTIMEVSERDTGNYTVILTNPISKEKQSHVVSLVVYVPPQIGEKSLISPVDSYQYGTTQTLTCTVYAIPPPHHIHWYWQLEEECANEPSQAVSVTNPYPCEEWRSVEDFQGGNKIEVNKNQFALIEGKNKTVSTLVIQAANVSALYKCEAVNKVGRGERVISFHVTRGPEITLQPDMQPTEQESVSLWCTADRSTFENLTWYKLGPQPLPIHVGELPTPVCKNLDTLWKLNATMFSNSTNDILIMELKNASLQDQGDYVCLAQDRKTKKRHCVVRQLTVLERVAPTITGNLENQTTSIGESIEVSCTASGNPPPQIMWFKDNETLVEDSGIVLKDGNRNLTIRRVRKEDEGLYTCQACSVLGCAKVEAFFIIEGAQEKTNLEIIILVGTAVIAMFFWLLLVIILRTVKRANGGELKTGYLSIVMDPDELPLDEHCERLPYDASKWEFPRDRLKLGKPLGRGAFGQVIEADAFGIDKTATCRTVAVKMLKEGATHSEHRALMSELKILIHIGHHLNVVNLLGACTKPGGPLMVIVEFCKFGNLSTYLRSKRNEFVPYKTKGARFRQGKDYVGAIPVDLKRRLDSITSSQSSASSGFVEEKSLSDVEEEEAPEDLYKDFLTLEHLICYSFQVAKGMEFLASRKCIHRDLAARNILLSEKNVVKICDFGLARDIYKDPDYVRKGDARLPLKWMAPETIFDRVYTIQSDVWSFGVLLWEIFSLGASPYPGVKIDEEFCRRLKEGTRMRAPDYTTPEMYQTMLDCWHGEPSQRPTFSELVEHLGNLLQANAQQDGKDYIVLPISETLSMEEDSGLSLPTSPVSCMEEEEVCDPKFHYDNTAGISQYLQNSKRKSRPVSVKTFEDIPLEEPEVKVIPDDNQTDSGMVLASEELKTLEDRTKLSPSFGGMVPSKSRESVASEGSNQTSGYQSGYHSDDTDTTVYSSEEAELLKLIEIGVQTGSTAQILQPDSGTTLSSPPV
Experiment: Displacement of kinase tracer 236 from recombinant human His-tagged KDR cytoplasmic domain (789 to 1356 residues) expressed in baculovirus-infected insect cells measured after 5 hrs by TR-FRET based LanthaScreen assay
pIC50: −log10 of the molar value.
outcome.measure: pIC50

compound.structure	meas.value
COc1ccc(CC(=O)Nc2ccc(-n3c4c(c5ncnc(N)c53)CCC4)cc2)cc1C(F)(F)F	< 6.70
Nc1ncnc2c3c(n(-c4ccc(NC(=O)Cc5ccc(F)cc5Br)cc4)c12)CCC3	< 6.70
Nc1ncnc2c3c(n(-c4ccc(NC(=O)Cc5ccccc5)cc4F)c12)CCC3	< 6.70
Nc1ncnc2c3c(n(-c4ccc(NC(=O)CC5CCNCC5)cc4)c12)CCC3	< 6.70
Nc1ncnc2c3c(n(-c4ccc(CC(=O)Nc5ccc(Cl)c(C(F)(F)F)c5)cc4)c12)CCC3	< 6.70
Nc1ncnc2c3c(n(-c4ccc(NC(=O)Cc5ccc(OC(F)(F)F)cc5)cc4)c12)COC3	< 6.70
Nc1ncnc2c3c(n(-c4ccc(CC(=O)Nc5ccc(C(F)(F)F)cn5)cc4)c12)CCC3	< 6.70
Nc1ncnc2c3c(n(-c4ccc(NC(=O)Cc5ccc(Cl)c(C(F)(F)F)c5)cc4)c12)COC3	< 6.70
Nc1ncnc2c3c(n(-c4ccc(NC(=O)c5c[nH]c6ccccc56)cc4)c12)CCC3	< 6.70
COc1cc(-n2c3c(c4ncnc(N)c42)CCC3)ccc1CC(=O)Nc1ccc(Cl)c(Cl)c1	< 6.70
Nc1ncnc2c3c(n(-c4ccc(NC(=O)Cc5cccc(OC(F)(F)F)c5)cc4)c12)CCC3	< 6.70
Cc1ccc(CC(=O)Nc2ccc(-n3c4c(c5ncnc(N)c53)CCC4)cc2)c(F)c1	6.70 to 8.00
Nc1ncnc2c3c(n(-c4ccc(NC(=O)Cc5ccc(OC(F)(F)F)cc5)cc4)c12)CCC3	< 6.70
COc1ccc(CC(=O)Nc2ccc(-n3c4c(c5ncnc(N)c53)COC4)cc2)cc1C(F)(F)F	< 6.70
Nc1ncnc2c3c(n(-c4ccc(NC(=O)Cc5ccc(F)cc5)cc4)c12)CCC3	< 6.70
Cc1ccc(F)c(CC(=O)Nc2ccc(-n3c4c(c5ncnc(N)c53)CCC4)cc2)c1	< 6.70
Nc1ncnc2c3c(n(-c4ccc(NC(=O)Cc5ccc(Cl)cc5F)cc4)c12)CCC3	< 6.70
Nc1ncnc2c3c(n(-c4ccc(CC(=O)Nc5ccc6c(c5)CCC6)cc4)c12)CCC3	6.70 to 8.00
COc1cc(-n2c3c(c4ncnc(N)c42)CCC3)ccc1NC(=O)Cc1ccc(OC)c(C(F)(F)F)c1	< 6.70
